I'd be grateful if you could share measured polymerase ribozyme fitness (log ratio) for these entries.
B1: TPR t1 (parent)
chain: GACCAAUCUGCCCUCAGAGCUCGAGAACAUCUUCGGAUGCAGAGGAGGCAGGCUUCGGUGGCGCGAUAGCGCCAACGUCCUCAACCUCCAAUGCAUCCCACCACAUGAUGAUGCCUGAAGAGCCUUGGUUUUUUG

Variants of: B1
Test: polymerase ribozyme fitness, log enrichment relative to wild type (log ratio); higher = more active; in vitro selection for triplet polymerase activity
One number for each entry.

{"Variant Identifier": "A18U C28U A50U C98A", "Quantity Kind": "polymerase ribozyme fitness (log ratio)", "Result": -7.62}

Dear colleague, could you please provide polymerase ribozyme fitness (log ratio) for the variants listed below?
1. U67C C123G
2. C40A U92G C123G
3. C72U C94G A95G C123U
4. A46U G57U U132A
5. C15A C20U G48A A91U
6. C70U C99U

Ans.
1. -4.34
2. -1.39
3. -0.867
4. -0.968
5. -4.59
6. -3.35

Dear colleague, could you send me polymerase ribozyme fitness (log ratio) for each of the items below? Thanks.
1. C8G C13G G36A C72U U78A A111C
2. G48U U92G
3. C49G G120U
4. A2G A43G
5. U9G G52U C80A G110U
6. C53A C99U
7. G36U C72U U96G G120C

Ans.
1. 0.397
2. -3.54
3. 0.305
4. -2.05
5. -5.82
6. -4.03
7. -0.581

Provide polymerase ribozyme fitness (log ratio) values for the following items, in order.
1. G19C C20U C40A G61A U87A U112A
2. A43U G71U A91G
3. A84U C114A U131A
4. G44A C89G C115A C124A U129A
5. G58C A83C
6. C72G C88G C115U
7. G39C G48U C62U

Ans.
1: -5.56; 2: -2.96; 3: -0.993; 4: -1.46; 5: 0.207; 6: -3.24; 7: -1.74

Qu. Item under review: U7A C70U . Reported polymerase ribozyme fitness (log ratio)?
Ans. -0.0171
